Test system: J774A.1 (Mouse BALB/c monocyte macrophage cell line) cells
assay_info: LPS-induced TNF-α secretion inhibition in J774A.1 cells
Format: cell-based
measurement_parameters: J774.A1, 1 μM compound, graded compared to taurodeoxycholic acid (positive control), read-out: TNF-α production inhibition grade
measure: inhibition at 1 µM

The following compounds have reported results that may help.
• CC[C@H]1[C@@H](O)[C@@H]2[C@H](CC[C@]3(C)[C@@H]([C@H](C)CCC(=O)N4CC[C@H](S(=O)(=O)O)C4)CC[C@@H]23)[C@@]2(C)CC[C@@H](O)C[C@@H]12 [NC40033] = > 100%
• C[C@H](CCC(=O)N[C@@H](Cc1ccccc1)CS(=O)(=O)O)[C@H]1CC[C@H]2[C@@H]3CC[C@@H]4CC(=O)CC[C@]4(C)[C@H]3CC[C@]12C [NC30014] = < 20%

Prompt: Record request: inhibition at 1 µM value, item C[C@H](CCC(=O)N(CCO)CCS(=O)(=O)O)[C@H]1CC[C@H]2[C@@H]3[C@H](O)C[C@@H]4C[C@H](O)CC[C@]4(C)[C@H]3C[C@H](O)[C@]12C [NC20006]
Response: < 20%

Prompt: Record request: inhibition at 1 µM value, item CC[C@H]1[C@@H](O)[C@@H]2[C@H](CC[C@]3(C)[C@@H]([C@H](C)CCC(=O)N(CCS(=O)(=O)O)C4CCOCC4)CC[C@@H]23)[C@@]2(C)CC[C@@H](O)C[C@@H]12 [NC40008]
Response: > 100%

Prompt: Record request: inhibition at 1 µM value, item C[C@H](CCC(=O)N[C@@H](CO)CS(=O)(=O)O)[C@H]1CC[C@H]2[C@@H]3CC[C@@H]4C[C@H](O)CC[C@]4(C)[C@H]3CC[C@]12C [NC10080]
Response: < 20%

Prompt: Record request: inhibition at 1 µM value, item CC(C)C[C@H](CS(=O)(=O)O)NC(=O)CC[C@@H](C)[C@H]1CC[C@H]2[C@@H]3CC[C@@H]4C[C@H](O)CC[C@]4(C)[C@H]3C[C@H](O)[C@]12C [NC10046]
Response: < 20%

Prompt: Record request: inhibition at 1 µM value, item C[C@H](CCC(=O)NC[C@@H](C)S(=O)(=O)O)[C@H]1CC[C@H]2[C@@H]3CC[C@@H]4C[C@H](O)CC[C@]4(C)[C@H]3CC[C@]12C [NC10079]
Response: 20 to 50%

Prompt: Record request: inhibition at 1 µM value, item C[C@H](CCC(=O)N1CCC[C@@H](S(=O)(=O)O)C1)[C@H]1CC[C@H]2[C@@H]3[C@H](O)C[C@@H]4C[C@H](O)CC[C@]4(C)[C@H]3C[C@H](O)[C@]12C [NC20010]
Response: < 20%

Prompt: Record request: inhibition at 1 µM value, item C[C@H](CCC(=O)N(C)CCS(=O)(=O)O)[C@H]1CC[C@H]2[C@@H]3CC[C@@H]4C[C@H](O)CC[C@]4(C)[C@H]3C[C@H](O)[C@]12C [NC10006]
Response: < 20%

Prompt: Record request: inhibition at 1 µM value, item CC[C@H]1[C@@H](O)[C@@H]2[C@H](CC[C@]3(C)[C@@H]([C@H](C)CCC(=O)N(CCS(=O)(=O)O)Cc4cccnc4)CC[C@@H]23)[C@@]2(C)CC[C@@H](O)C[C@@H]12 [NC40036]
Response: < 20%
